Molecular target: Adenosine receptor A3 (Homo sapiens, UniProt P0DMS8)
Sequence (P0DMS8 whole entry): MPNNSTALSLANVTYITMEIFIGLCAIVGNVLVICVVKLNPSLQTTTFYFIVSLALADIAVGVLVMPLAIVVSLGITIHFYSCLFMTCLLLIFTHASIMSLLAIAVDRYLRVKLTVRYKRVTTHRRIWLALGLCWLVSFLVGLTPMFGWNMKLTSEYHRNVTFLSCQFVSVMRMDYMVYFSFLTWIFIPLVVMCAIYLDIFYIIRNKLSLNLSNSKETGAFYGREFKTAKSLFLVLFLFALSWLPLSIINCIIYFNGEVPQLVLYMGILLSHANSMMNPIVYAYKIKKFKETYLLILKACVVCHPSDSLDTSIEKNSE
The entries below come with measured pKi values attached.
pKi field: float, defined as -log10 of concentration (mol/L).

[Q] Return the recorded pKi value; entry: Nc1nc2ccc(Cl)cc2c2nc(-c3ccco3)nn12
[A] 6.91

[Q] Return the recorded pKi value; entry: CCn1cc2c(nc(NC(=O)Nc3ccccc3)n3nc(-c4ccco4)nc23)n1
[A] 8.92
